# Tested on: SK-MEL-28 melanoma
# assay-summary: NCI-60 one-dose screen, 48 h (100 = growth as untreated, 0 = no growth, -100 = all killed)
# experimental-context: 10 µM unless noted
The panel holds about 83,000 compounds, 20% with a hit somewhere; the sample as a whole holds those more often.
# label = 1 if growth >= 90% else -1

compound	group
CCNc1cc2c(cc1Br)-c1ccccc1C2=O	1
CCCCC(CC)COC(=O)C[N+](C)(C)CCOC(c1ccccc1)c1ccccc1 (stereo unspecified)	-1
COc1ccc(C2=C(c3cn(C)c4ccccc34)C(=O)OC2)cc1OC	-1
CCN(CC)CCSC(=O)C(O)(c1ccccc1)C1CCCC1 (stereo unspecified)	-1
CCOC(=O)c1c[nH]n2c(=S)ncnc12	1
COc1ccc(-c2cc(-c3ccccc3)nc(SCCCCCC(=O)NO)n2)cc1	-1
N#C/C(=C(/O)CCCO)c1nc2ccccc2c(=O)[nH]1	1
CCN1CCN(CC(=O)Nc2nc3ccc(NCc4ccc(Cl)cc4)cc3s2)CC1	-1
Cn1cc(-c2noc(-c3cn(C)c4ncccc34)n2)c2cc(Cl)ccc21	1
Cn1cc(-c2noc(C(=O)c3cn(C)c4ncc(Br)cc34)n2)c2ccccc21	1

====

Recorded growth by entry
# Test system: UACC-257 melanoma
# assay-summary: NCI-60 one-dose screen, 48 h (100 = growth as untreated, 0 = no growth, -100 = all killed)
# experimental-context: 10 µM unless noted
The panel holds about 83,000 compounds, 20% with a hit somewhere; the sample as a whole holds those more often.
reported-endpoint: growth (%)

smi	meas-value
CCCCCCNC(=O)Nc1ncnc2c1ncn2-c1ccccc1	105
O=C(O)c1cc([N+](=O)[O-])ccc1Br	102
N#CCCc1c[nH]c2ccccc12	90.9

====

# Test system: OVCAR-4 ovarian
# assay-summary: NCI-60 one-dose screen, 48 h (100 = growth as untreated, 0 = no growth, -100 = all killed)
# experimental-context: 10 µM
The panel holds about 83,000 compounds, 20% with a hit somewhere; the sample as a whole holds those more often.
Recorded growth by entry
reported-endpoint: growth (%)

molecule	reported-endpoint	meas-value
COc1ccc(/C=C/C(=C/c2c(O)[nH]c3cc(Br)ccc23)N=O)cc1	growth	101
O=C1NC(=O)C(Cc2ccccc2)(Cc2ccccc2)N1	growth	91.2
Cc1cc(SC#N)ncn1	growth	103
Cc1cc(NN=C(c2ccc(O)cc2)c2ccc(O)cc2)c([N+](=O)[O-])cc1[N+](=O)[O-]	growth	52.6
COc1ccc2nc3ccccc3c(NCCNCCO)c2c1	growth	-10.4
CCN(CC)c1ccc(/C=C/c2ccc3cc(C)ccc3[n+]2CC)cc1	growth	21.2
COc1cc(C(=O)/C=C/c2c(-c3ccc(F)cc3)nc3sccn23)cc(OC)c1OC	growth	25.7
O=C(NNc1ccc(-c2ccccc2)nn1)c1ccccc1	growth	96
COc1c(B(O)O)cccc1-c1nc2ccc3[nH]ncc3c2c2c1CCC2	growth	80.7
c1cc2ccc1CNCCN1CCNCc3ccc(cc3)Oc3ccc(cc3)CNCCN(CCNCc3ccc(cc3)O2)CCNCc2ccc(cc2)Oc2ccc(cc2)CNCC1	growth	-77.6
COc1ccc(C2CC(c3ccc4ccccc4c3)=NN2c2nc(O)c(C3=c4cc(OC)ccc4=NC3=O)s2)cc1 (stereo unspecified)	growth	-45.8

====

# Tested on: SK-MEL-2 melanoma
# assay-summary: NCI-60 one-dose screen, 48 h (100 = growth as untreated, 0 = no growth, -100 = all killed)
# experimental-context: 10 µM unless noted
Compounds without any hit were thinned out: in the full panel of roughly 83,000, 20% have a hit. Calls of active or inactive are those of the source. The calls were made as follows: active = growth percent below 10; inactive = the rest.

molecule	growth
CCN(CC)c1ccc(/C=C/c2ccc3cc(C)ccc3[n+]2CC)cc1	-32.3% (active)
COc1ccc(C(=O)CCC(=O)O)cc1	102% (inactive)
Nc1cc(C(=O)O)[nH]c(=S)n1	98.9% (inactive)
CC(C)=CCC[C@](C)(O)[C@H]1CC[C@]2(C)[C@@H]1CC[C@@H]1[C@@]3(C)CC/C(=N/O)C(C)(C)[C@@H]3CC[C@]12C	-23.2% [100 µM] (active)
Cn1cc(-c2nnc(-c3cn(C)c4ncccc34)s2)c2ccccc21	79.8% (inactive)
Cc1ccc(NCCN2CCCCC2)c2c(=O)c3ccccc3sc12	45.6% (inactive)
CC(C)(C)c1cc(C(=O)Nc2cc3ccccc3cc2C(=O)NCCN)cc(C(C)(C)C)c1	-48.8% (active)
CC1(C)CC[C@]2(C(=O)O)CC[C@]3(C)[C@H](CC[C@@H]4[C@@]5(C)CCC(=O)C(C)(C)[C@@H]5CC[C@]43C)[C@H]2[C@H]1OC(=O)C(F)(F)F	-71.8% [100 µM] (active)
O=C(NCc1ccccc1)C(Cl)Cl	96.2% (inactive)
O=C(O)CSCc1nnc2n(Cc3ccccc3)c(=O)c3c4c(sc3n12)CCCC4	79.3% (inactive)
COc1cc(C)cc2oc3oc(=N)c(C(=O)c4ccccc4)cc3c(=O)c12	114% (inactive)
COC(=O)[C@]1(C)CC[C@]2(C)CC[C@]3(C)C(=CC(=O)[C@@H]4[C@@]5(C)CCC(=O)NC(C)(C)[C@@H]5CC[C@]43C)[C@@H]2C1	-83.2% [100 µM] (active)
COc1ncnc2c(-c3ccccc3)cn(COCc3ccccc3)c12	34.5% (inactive)
COc1ccc(C(=O)c2nccc3cc(OC)c(OC)cc23)cc1OC	108% (inactive)
Cc1cnc([C@]23CC[C@@H](C)[C@H](C)[C@H]2C2=CC[C@@H]4[C@@]5(C)Cc6c([nH]c7ccccc67)C(C)(C)[C@@H]5CC[C@@]4(C)[C@]2(C)CC3)o1	77.4% [100 µM] (inactive)
O=C(NCCCNC(=O)OCc1ccc2cccc(O)c2n1)OCc1ccc2cccc(O)c2n1	71.3% (inactive)
CC(C)c1ccc(C(=O)Nc2sc3c(c2C#N)CCC(=O)C3)cc1	-20.1% (active)
NC(=O)c1cccc(-c2ccc(S(=O)(=O)Nc3ccc4c(c3)N(C(=O)C3CC3)CCC4)cc2)c1	7.54% (active)
c1nc(N2CCOCC2)c2[nH]ccc2n1	96% (inactive)
Nc1ccc(NC(=O)c2ccccc2)c2c1C(=O)c1ccccc1C2=O	108% (inactive)
COc1c(B(O)O)cccc1-c1nc2ccc3[nH]ncc3c2c2c1CCC2	58.2% (inactive)
COc1ccc(/C=C(/C(=O)c2ccc(Cl)cc2)C(=O)C(F)(F)F)cc1	86.4% (inactive)
CC1(C)[C@@H](NOCCCN)CC[C@]2(C)[C@H]3C(=O)C=C4[C@@H]5C[C@](C)(C(=O)O)CC[C@]5(C)CC[C@@]4(C)[C@]3(C)CC[C@@H]12	-63.8% [100 µM] (active)
C=C(C)[C@@H]1CC[C@]2(C(=O)N3CCN(C)CC3)CC[C@]3(C)[C@H](CC[C@@H]4[C@@]5(C)C/C(=C/c6ccncc6)[C@H](O)C(C)(C)[C@@H]5CC[C@]43C)[C@@H]12	-60.1% [100 µM] (active)
CCN=C1C=CC(=C(c2ccc(N(CC)CC)cc2)c2ccc(N(CC)CC)cc2)c2ccccc21	-76.3% (active)
c1coc2occoc=2o1	105% (inactive)
CC1Cc2c(Cl)ncnc2N(C)c2ccc(O)cc21 (centres undefined)	27% (inactive)
CCOc1cc(NC(=O)c2ccccc2)c(OCC)cc1N	112% (inactive)
CCCCCCCCCCCCCCNC(=O)Nc1ccc(Cl)c(Cl)c1	14.5% (inactive)

====

Recorded growth by entry
# Test system: RXF 393 renal
# assay-summary: NCI-60 one-dose screen, 48 h (100 = growth as untreated, 0 = no growth, -100 = all killed)
# experimental-context: 10 µM unless noted
Compounds without any hit were thinned out: in the full panel of roughly 83,000, 20% have a hit.

molecule	experimental-target	readout-units	growth
CCN(CCNc1ccc(C)c2sc3cc(Cl)ccc3c(=O)c12)CC(C)O (centres undefined)	RXF 393 renal	%	-39.2
COc1cc(C)cc2oc3oc(=O)c(-c4nc5ccccc5s4)cc3c(=O)c12	RXF 393 renal	%	77.5
COc1cc(OC)c(/C=C/C(=O)c2c(N)cc(OC)cc2OC)c(OC)c1	RXF 393 renal	%	-46.1
NC(=O)CC1C=CCC1 (centres undefined)	RXF 393 renal	%	111

====

# System: A498 renal
# assay-summary: NCI-60 one-dose screen, 48 h (100 = growth as untreated, 0 = no growth, -100 = all killed)
# experimental-context: 10 µM unless noted
# Description: Growth inhibition of the A498 human tumor cell line is measured as a screen for anti-cancer activity. Cells are grown in 96 well plates and exposed to the test compound for 48 hours. Compounds are tested at a single concentration, which is 10^-5 M for most compounds. The reported endpoint is percent growth (GI% or GIPRCNT), where numbers from 0 - 100% represent growth inhibition, and numbers from -100% - 0 represent cell death. For example, a value of 40 represents 60% growth inhibition. […]
About 83,000 compounds went through this panel and 20% of them were active in at least one assay; those are over-represented in the sample as a whole.

smi	experimental-target	readout-units	growth
COc1cc(-c2nc(SCCC(C)C)nc(Nc3ccccc3)c2C#N)cc(OC)c1OC	A498 renal	%	69.9
CCOC(=O)c1ccc2nc(-c3c(C)nn(-c4ccccc4)c3N3CCOCC3)[nH]c2c1	A498 renal	%	70.4
CCCc1cc2cc(-n3nc(C)c4c3CC(C)(C)CC4=O)cc(NC3CCSCC3)c2c(=O)[nH]1	A498 renal	%	71.4
